assay: Brain weight in young and aged rats; assay type: in vivo; conditions: young animals
TEST READOUT: Brain weight (g)
Report the figure in g without appending any unit label.

Query: Brain weight; subject: Cn1c(=O)[nH]c2nc[nH]c2c1=O
1.73
